- subject of test: Shiga toxin 2 (Escherichia coli O157:H7) (UniProt P09385+P09386)
- protocol description: E. coli 0.157:H7 Shiga Toxin SOP - stx2 screening assay
- Format: functional
- Parameters: scale not given: direction of the effect not stated beside the values
- experimental context: 30 µM
Returns one of Yes or No; Yes when Percent Effect is >= -20%.

compound | subject of test | class label
O=C1CCSCC(C(=O)N2CCOCC2)N1 (stereo not given) | Shiga toxin 2 (Escherichia coli O157:H7) (UniProt P09385+P09386) | Yes
O=C(NCC(F)F)N1CCC(n2ccc(C(F)(F)F)n2)CC1 | Shiga toxin 2 (Escherichia coli O157:H7) (UniProt P09385+P09386) | Yes
COc1cccc(OC)c1CN1CCC2(CC(Nc3ccncn3)C2)C1 (stereo not given) | Shiga toxin 2 (Escherichia coli O157:H7) (UniProt P09385+P09386) | Yes
O=C(Cc1csc(-c2ccc(Cl)cc2)n1)NC(C(=O)O)c1ccccc1 (stereo not given) | Shiga toxin 2 (Escherichia coli O157:H7) (UniProt P09385+P09386) | No

Now look at this one.
Data request: Identify whether the reported Percent Effect of the following compound is -20% or greater: `Cc1cc(C)n(CCC(=O)N2CCC(c3nc(C(C)C)no3)CC2)n1`
Data returned: Yes

----------
Percent Effect for assorted compounds
- subject of test: Shiga toxin 2 (Escherichia coli O157:H7) (UniProt P09385+P09386)
- protocol description: E. coli 0.157:H7 Shiga Toxin SOP - stx2 screening assay
- Type: functional
- Set-up: scale not given: direction of the effect not stated beside the values
- experimental context: 30 µM

compound | result
c1cc(C2CCCN2Cc2nnnn2C2CC2)cs1 (stereo unspecified) | 5.22%
COc1ccc(-n2ncc(C(=O)NCC3COC(C)(C)O3)c2N)cc1 (stereo unspecified) | 7.2%
O=C(NCc1cc[nH]n1)N(CCCO)C1CCc2ccccc21 (stereo unspecified) | 0.536%
CC(=O)N1CCCC1C(=O)NCCOc1cc(C)cc(C)c1 (stereo unspecified) | 9.04%
O=C(c1cccc(NCCO)c1)N1CCOCC1 | -69.6%

Summary: `N#Cc1cccnc1NCc1cccnc1N1CCC(C(N)=O)CC1` , Shiga toxin 2 (Escherichia coli O157:H7) (UniProt P09385+P09386), Percent Effect = -10.3%

Cc1cc(C[S+]([O-])CC(=O)Nc2c(C)cccc2C)no1 (stereo unspecified) tested on Shiga toxin 2 (Escherichia coli O157:H7) (UniProt P09385+P09386) gave Percent Effect: 17%

Measured Percent Effect for this entry `COC(=O)N1CCc2ccc(NC(=O)c3cn(C)nn3)cc2C1` on Shiga toxin 2 (Escherichia coli O157:H7) (UniProt P09385+P09386): -90%

Result for `CCCn1ncc2c(C(=O)Nc3n[nH]c(SC)n3)cc(C3CC3)nc21` , tested on Shiga toxin 2 (Escherichia coli O157:H7) (UniProt P09385+P09386), Percent Effect: -0.011%

Tested on Shiga toxin 2 (Escherichia coli O157:H7) (UniProt P09385+P09386): Cc1nc2n(n1)CC(NCc1cc(Cl)c3c(c1)OCCCO3)CC2 (stereo unspecified) . Observed Percent Effect: 22.8%

Recorded Percent Effect for `CCS(=O)(=O)N(C)C1CCN(C(=O)c2cccc(Cl)c2)CC1` on Shiga toxin 2 (Escherichia coli O157:H7) (UniProt P09385+P09386) was 14.8%

Shiga toxin 2 (Escherichia coli O157:H7) (UniProt P09385+P09386) Percent Effect of CCc1nc(C2CCCN2Cc2nc(CCOC)no2)no1 (stereo unspecified) is -11.9%

Bench note, Shiga toxin 2 (Escherichia coli O157:H7) (UniProt P09385+P09386): entry Cc1cc(C)n(CC2CCCN2C(=O)c2cccc3[nH]ncc23)n1 (stereo unspecified) , its Percent Effect = -17.6%

Param item: `COc1ccc(CC(=O)N(C)Cc2nnc3ccccn23)cc1` ; param system: Shiga toxin 2 (Escherichia coli O157:H7) (UniProt P09385+P09386); output Percent Effect: 2.4%

Form field Percent Effect for item `Cn1ccc(C(=O)N2CCC[C@]3(C[C@@H](OCc4ccccn4)CO3)C2)n1` on Shiga toxin 2 (Escherichia coli O157:H7) (UniProt P09385+P09386): -3.97%

Test item CC(C)(C)c1n[nH]c(C2CN(C(=O)c3cc(Cl)c[nH]3)CCO2)n1 (stereo unspecified) ; Shiga toxin 2 (Escherichia coli O157:H7) (UniProt P09385+P09386); reported Percent Effect was 0.626%

Per the reported Shiga toxin 2 (Escherichia coli O157:H7) (UniProt P09385+P09386) data, CC(NC(=O)N1CCN(CCc2ccccc2)CC1)c1nncn1C (stereo unspecified) has Percent Effect of -13.8%

----------
- subject of test: Aspartate--tRNA(Asp/Asn) ligase (Mycobacterium tuberculosis (strain ATCC 25618 / H37Rv)) (UniProt P9WFW3)
- protocol description: Assay for Asp RNA synthetase-1 from Mycobacterium tuberculosis
- Assay type: functional
- Set-up: scale not given: direction of the effect not stated beside the values
- experimental context: 30 µM
measured endpoint: Percent Effect (%)
The reply should be a number in %, with the unit left off.

Looking up `CC(C)(C)c1n[nH]cc1CN1CCc2nc3ccsc3c(=O)n2CC1` , I see its Percent Effect listed as -0.849

# Percent Effect of `COC(=O)CCC(=O)N1CCC2(CN(Cc3cccc(F)c3)C2)C1` = 8.76

----------
- subject of test: Aspartate--tRNA(Asp/Asn) ligase (Mycobacterium tuberculosis (strain ATCC 25618 / H37Rv))
- Sequence (whole entry): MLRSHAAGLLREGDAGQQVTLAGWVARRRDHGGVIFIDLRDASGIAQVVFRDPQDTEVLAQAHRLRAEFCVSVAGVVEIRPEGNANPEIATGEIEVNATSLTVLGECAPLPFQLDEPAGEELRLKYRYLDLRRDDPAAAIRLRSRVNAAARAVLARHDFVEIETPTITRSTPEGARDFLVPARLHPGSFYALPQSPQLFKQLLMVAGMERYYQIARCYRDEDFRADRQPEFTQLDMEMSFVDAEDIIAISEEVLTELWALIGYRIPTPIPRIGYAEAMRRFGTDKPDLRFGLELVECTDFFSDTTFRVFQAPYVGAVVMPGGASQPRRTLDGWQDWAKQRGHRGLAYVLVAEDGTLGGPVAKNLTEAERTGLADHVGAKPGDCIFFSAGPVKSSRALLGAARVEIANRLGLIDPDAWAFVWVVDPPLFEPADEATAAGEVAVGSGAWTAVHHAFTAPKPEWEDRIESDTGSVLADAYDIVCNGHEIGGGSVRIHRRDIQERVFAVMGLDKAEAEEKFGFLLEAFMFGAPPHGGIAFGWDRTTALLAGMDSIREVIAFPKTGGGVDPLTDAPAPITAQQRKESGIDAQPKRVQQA
- protocol description: Assay for Asp RNA synthetase-1 from Mycobacterium tuberculosis
- Assay type: functional
- Design: scale not given: direction of the effect not stated beside the values
- experimental context: 30 µM
measured endpoint: Percent Effect (%)
The figure you give is taken to be in %; do not add the unit.

Below: 3 compounds and their reported Percent Effect.
compound | Percent Effect, %
Cc1nnc(N2CC[C@H](OCC3CC3)[C@@H](Cc3ccccc3)C2)s1 | 9.93
CN(Cc1cnn(C)c1)C(=O)NC1CCS(=O)(=O)C1 (stereo not drawn) | -2.67
CC(O)CN1CCN(C(=O)c2cc3ccccc3c(=O)[nH]2)CC1 (stereo not drawn) | 0.869

Lookup result for `O=C(NCc1ccccn1)N(Cc1ccc(F)cc1F)C1CC1` ; measured Percent Effect: -1.6

For record CC(C)c1noc(C(C)N2CCN(CCN3CCCC3=O)CC2)n1 (stereo not drawn) the listed Percent Effect is 1.45

Given item CC(C)c1noc(C(C)N2CCN(Cc3ccccc3C#N)CC2)n1 (stereo not drawn) , the value recorded as its Percent Effect is -1.01

Recorded Percent Effect (compound `COc1cc(C)nc(N2CCN(C(=O)CCc3nccs3)CC2)n1` ): 2.87

Field Percent Effect (entry `CCOc1ncccc1CNC(=O)Nc1ccc(N(C)C)nc1` ) reads 3.77

----------
- subject of test: Shiga toxin 2 (Escherichia coli O157:H7) (UniProt P09385+P09386)
- protocol description: E. coli 0.157:H7 Shiga Toxin SOP - stx2 screening assay
- Assay type: functional
- Parameters: scale not given: direction of the effect not stated beside the values
- experimental context: 30 µM
measured endpoint: Percent Effect (%)
Kindly answer with a numeric value in %, unit omitted.

// solved cases for Percent Effect follow
molecule | unit annotation | quantitative result
O=C1C(NCc2nnc3n2CCCC3)CCN1c1ccccc1 (centres undefined) | % | -28.4
COc1ccc(Br)c(C(=O)N2CCC(c3n[nH]c(C4CC4)n3)CC2)c1 | % | -39.5
CNC(=O)CSc1nc2c(cnn2Cc2ccc(F)cc2)c(=O)[nH]1 | % | -8.43

Value of Percent Effect reported for the molecule CCn1ncnc1C(NC(=O)CC1CCN(C(C)C)CC1)C1CC1 (centres undefined) is -13.7

# Percent Effect (molecule: CS(=O)(=O)NC1CCCN(C(=O)NCc2cccnc2)C1 (centres undefined) ) is 26.7

Record summary for `CSCC[C@H](NC(=O)Cn1ccc2c(Cl)cccc21)C(=O)O` : reported Percent Effect = -22

Input `COc1ccc(CNCc2ccnc(N3CCOCC3)c2)cc1OC` . Output Percent Effect: -52.5

The molecule listed as `O=C(Cc1csc(-c2ccco2)n1)N1CCN(c2cnccn2)CC1` has a reported Percent Effect of -70.6

According to the records, this molecule `COc1cccc(CN2C[C@@H]3COC[C@]3(COCc3ccncc3)C2)c1` displays Percent Effect of 5.94

Consider `Cc1noc([C@H]2C[C@@H]3CCN(C(=O)N(C)C)C[C@H]3O2)n1` . Its measured Percent Effect is -1.56

Item: O=C(c1cccc(CNCC2CNc3ccnn3C2)c1)N1CCCC1 (centres undefined) | Percent Effect: -3.83

// field: Percent Effect; key: Cc1cnn(CC2CCCN2CCCc2nc3ccccc3o2)c1 (centres undefined) ; value = -14.6

Per the records, this molecule ( `O=C(CCc1ccccc1)N1CCC(N2CCNC2=O)CC1` ) has Percent Effect equal to 26

// Percent Effect lookup, molecule = `CCn1cc(N2Cc3nc(N)ncc3C2=O)cn1` , result: -36.6

// Percent Effect value for `COC[C@@]12CCO[C@@H]1CCN(C(=O)Cc1ccccc1F)C2` : -1.69

GET /value?item= `CCn1nc(C)c2nc(C(C)C)nc(NCCOC)c21` &field=Percent Effect returns -4.71

Values compiled from ChEMBL document CHEMBL3988442.
